system: Escherichia coli; assay: microbe, parasite or virus in culture
Description: Antimicrobial activity against Escherichia coli expressing beta-lactamase TEM-10 by CLSI broth microdilution method
Measured metric: MIC

Consider the following illustrative entries.
Compound	MIC
NC[C@@H]1CN(C[C@@H]2[C@H](NC(=O)/C(=N\OC3(C(=O)O)CC3)c3csc(N)n3)C(=O)N2S(=O)(=O)O)C(=O)O1 (stereo in doubt)	1 µg/mL
CC(C)(O/N=C(\C(=O)N[C@@H]1C(=O)N(S(=O)(=O)O)[C@@H]1Cn1cc(CNC(=N)N)nn1)c1csc(N)n1)C(=O)O (stereo in doubt)	1 µg/mL
Nc1nc(/C(=N/OC2(C(=O)O)CC2)C(=O)N[C@@H]2C(=O)N(S(=O)(=O)O)[C@@H]2CN2CCOC2=O)cs1 (stereo in doubt) [ANCREMONAM]	1 µg/mL
CC(C)(O/N=C(\C(=O)N[C@@H]1C(=O)N(S(=O)(=O)O)[C@@H]1CNC(=O)CN)c1csc(N)n1)C(=O)O (stereo in doubt)	2 µg/mL
CC(C)(O/N=C(\C(=O)N[C@@H]1C(=O)N(S(=O)(=O)O)[C@@H]1CN1C[C@@H](CNC(=N)N)OC1=O)c1csc(N)n1)C(=O)O (stereo in doubt)	2 µg/mL

Shift focus to the following entry.
// fetch MIC given entry CC(C)(O/N=C(\C(=O)N[C@@H]1C(=O)N(S(=O)(=O)O)[C@@H]1CN1C[C@H](CO)OC1=O)c1csc(N)n1)C(=O)O (stereo in doubt)
> 64 µg/mL

###

system: Pseudomonas aeruginosa; experiment: Antimicrobial activity against Pseudomonas aeruginosa expressing delta-mexB/mexXY/delta-ampDh2/ delta-ampD by CLSI broth microdilution method; assay type: functional
Measured metric: MIC (µg/mL)
Express the result in µg/mL but write the number alone.

Compound	MIC / µg/mL
N=C(N)NCc1cnn(C[C@@H]2[C@H](NC(=O)/C(=N\OC3(C(=O)O)CC3)c3csc(N)n3)C(=O)N2S(=O)(=O)O)n1 (stereo in doubt)	32
Nc1nc(/C(=N/OC2(C(=O)O)CC2)C(=O)N[C@@H]2C(=O)N(S(=O)(=O)O)[C@@H]2CN2CCOC2=O)cs1 (stereo in doubt)	64

// fetch MIC given entry N=C(NC1CCNCC1)c1ccc(OC[C@H](O/N=C(\C(=O)N[C@@H]2C(=O)N(S(=O)(=O)O)[C@@H]2Cn2cncn2)c2csc(N)n2)C(=O)O)cc1 (stereo in doubt)
16

###

test system: Escherichia coli; experiment: Antimicrobial activity against Escherichia coli expressing beta-lactamase KPC-2 by CLSI broth microdilution method; format: functional
Recorded MIC, one value per entry.
Express the result in µg/mL but write the number alone.

Consider the following illustrative entries.
Compound	Test target	MIC (µg/mL)
CC(C)(O/N=C(\C(=O)N[C@@H]1C(=O)N(S(=O)(=O)O)[C@@H]1CN1CCOC1=O)c1csc(N)n1)C(=O)O (stereo in doubt)	Escherichia coli	0.5
NC[C@@H]1CN(C[C@@H]2[C@H](NC(=O)/C(=N\OC3(C(=O)O)CC3)c3csc(N)n3)C(=O)N2S(=O)(=O)O)C(=O)O1 (stereo in doubt)	Escherichia coli	0.125

Shift focus to the following entry.
Identify measured MIC obtained with Escherichia coli for CC(C)(O/N=C(\C(=O)N[C@@H]1C(=O)N(S(=O)(=O)O)[C@@H]1Cn1cc(CN)nn1)c1csc(N)n1)C(=O)O (stereo in doubt) .
2

###

tested on: Escherichia coli; test: microbe, parasite or virus in culture
Description: Antimicrobial activity against wild type Escherichia coli by CLSI broth microdilution method
Mark True only when MIC stays strictly below 0.5 µg/mL. Values equal to the cut-off are False.

Here's what some known entries look like.
Compound	Class label
CC(C)(O/N=C(\C(=O)N[C@@H]1C(=O)N(S(=O)(=O)O)[C@@H]1CN1CCCC1=O)c1csc(N)n1)C(=O)O (stereo in doubt)	False
CN(C[C@@H]1[C@H](NC(=O)/C(=N\OC(C)(C)C(=O)O)c2csc(N)n2)C(=O)N1S(=O)(=O)O)C(=O)CN (stereo in doubt)	False
Nc1nc(/C(=N/OC2(C(=O)O)CC2)C(=O)N[C@@H]2C(=O)N(S(=O)(=O)O)[C@H]2CN2CCOC2=O)cs1 (stereo in doubt)	True

Consider the record given below.
In the record for CC(C)(O/N=C(\C(=O)N[C@@H]1C(=O)N(S(=O)(=O)O)[C@@H]1CN1C[C@@H](CO)OC1=O)c1csc(N)n1)C(=O)O (stereo in doubt) , is MIC less than 0.5 µg/mL?
False

###

experiment: Clearance in dog at 10 mg/kg, iv; type: ADME, organism-based, Canis lupus familiaris; details: in vivo
Measured metric: clearance (mL/min/kg)
Express the result in mL/min/kg but write the number alone.

// fetch clearance given entry Nc1nc(/C(=N/OC2(C(=O)O)CC2)C(=O)N[C@@H]2C(=O)N(S(=O)(=O)O)[C@@H]2CN2CCOC2=O)cs1 (stereo in doubt)
4

###

test: in vitro; settings: human, plasma
Description: Protein binding in human plasma
Measured metric: fraction unbound
API note: the answer field is a bare number with no unit suffix.

// fetch fraction unbound given entry Nc1nc(/C(=N/OC2(C(=O)O)CC2)C(=O)N[C@@H]2C(=O)N(S(=O)(=O)O)[C@@H]2CN2CCOC2=O)cs1 (stereo in doubt) [ANCREMONAM]
0.87

###

assay: in vitro; settings: dog, plasma
Description: Protein binding in dog plasma
Measured metric: fraction unbound
API note: the answer field is a bare number with no unit suffix.

// fetch fraction unbound given entry Nc1nc(/C(=N/OC2(C(=O)O)CC2)C(=O)N[C@@H]2C(=O)N(S(=O)(=O)O)[C@@H]2CN2CCOC2=O)cs1 (stereo in doubt)
0.76

###

molecular target: GABA A receptor alpha-2/beta-2/gamma-2 (Homo sapiens, UniProt P18507+P47869+P47870); experiment: Inhibition of recombinant human GABA A alpha2beta2gamma2 receptor expressed in CHO-K1 cells incubated at room temperature for 15 mins before the GABA addition fluorescence spectrometry
Sequence (P47870 whole entry): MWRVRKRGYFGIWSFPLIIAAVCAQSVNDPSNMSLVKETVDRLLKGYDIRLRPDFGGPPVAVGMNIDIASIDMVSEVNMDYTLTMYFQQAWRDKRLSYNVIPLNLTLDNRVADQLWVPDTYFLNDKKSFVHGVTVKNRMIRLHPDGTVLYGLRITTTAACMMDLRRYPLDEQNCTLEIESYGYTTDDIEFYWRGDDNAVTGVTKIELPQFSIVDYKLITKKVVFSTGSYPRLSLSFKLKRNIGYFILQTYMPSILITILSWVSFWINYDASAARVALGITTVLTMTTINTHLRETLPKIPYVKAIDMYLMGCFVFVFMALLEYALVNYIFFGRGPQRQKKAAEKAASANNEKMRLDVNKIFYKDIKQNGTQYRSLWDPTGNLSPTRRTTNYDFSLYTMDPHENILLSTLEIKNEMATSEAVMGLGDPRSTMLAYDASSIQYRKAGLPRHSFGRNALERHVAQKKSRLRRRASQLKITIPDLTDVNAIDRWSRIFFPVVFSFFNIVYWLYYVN
Sequence (P18507 whole entry): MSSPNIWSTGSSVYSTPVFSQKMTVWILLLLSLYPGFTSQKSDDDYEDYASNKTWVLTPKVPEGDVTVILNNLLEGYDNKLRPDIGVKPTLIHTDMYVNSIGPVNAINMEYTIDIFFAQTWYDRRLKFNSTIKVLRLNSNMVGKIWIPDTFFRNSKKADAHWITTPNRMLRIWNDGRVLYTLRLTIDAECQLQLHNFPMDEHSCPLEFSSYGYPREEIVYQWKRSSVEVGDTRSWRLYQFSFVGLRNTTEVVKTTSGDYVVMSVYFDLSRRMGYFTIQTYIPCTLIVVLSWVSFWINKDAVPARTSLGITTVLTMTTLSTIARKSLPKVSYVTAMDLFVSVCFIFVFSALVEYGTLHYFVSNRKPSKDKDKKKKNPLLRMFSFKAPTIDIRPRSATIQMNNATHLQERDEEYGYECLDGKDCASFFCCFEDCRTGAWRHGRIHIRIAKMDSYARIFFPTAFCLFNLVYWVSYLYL
Sequence (P47869 whole entry): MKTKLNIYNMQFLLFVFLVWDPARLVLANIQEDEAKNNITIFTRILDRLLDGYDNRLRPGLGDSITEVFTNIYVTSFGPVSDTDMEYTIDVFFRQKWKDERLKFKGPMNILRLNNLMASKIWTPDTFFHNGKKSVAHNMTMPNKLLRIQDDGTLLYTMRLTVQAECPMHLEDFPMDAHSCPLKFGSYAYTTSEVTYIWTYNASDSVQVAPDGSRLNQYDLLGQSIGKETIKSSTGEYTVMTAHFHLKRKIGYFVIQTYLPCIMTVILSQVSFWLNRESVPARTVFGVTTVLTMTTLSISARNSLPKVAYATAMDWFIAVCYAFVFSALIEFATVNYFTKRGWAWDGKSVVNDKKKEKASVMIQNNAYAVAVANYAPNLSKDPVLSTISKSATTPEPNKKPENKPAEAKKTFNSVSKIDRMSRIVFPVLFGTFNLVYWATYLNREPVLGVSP
Recorded IC50, one value per entry.

Consider the following illustrative entries.
Molecule	Recorded value
Nc1nc(/C(=N/OC2(C(=O)O)CC2)C(=O)N[C@@H]2C(=O)N(S(=O)(=O)O)[C@@H]2CN2CCOC2=O)cs1 (stereo in doubt) [ANCREMONAM]	> 2400 µM
N=C(N)NCc1cnn(C[C@@H]2[C@H](NC(=O)/C(=N\OC3(C(=O)O)CC3)c3csc(N)n3)C(=O)N2S(=O)(=O)O)n1 (stereo in doubt)	190 µM
NC[C@@H]1CN(C[C@@H]2[C@H](NC(=O)/C(=N\OC3(C(=O)O)CC3)c3csc(N)n3)C(=O)N2S(=O)(=O)O)C(=O)O1 (stereo in doubt)	1340 µM

// fetch IC50 given entry N=C(N)NCc1cn(C[C@@H]2[C@H](NC(=O)/C(=N\OC3(C(=O)O)CC3)c3csc(N)n3)C(=O)N2S(=O)(=O)O)nn1 (stereo in doubt)
890 µM

###

test system: Escherichia coli; experiment: microbe, parasite or virus in culture
Mark Yes only when MIC stays strictly below 4 µg/mL. Values equal to the cut-off are No.

Compound	Class label
CC(C)(O/N=C(\C(=O)N[C@@H]1C(=O)N(S(=O)(=O)O)[C@@H]1CN1C[C@H](CN)OC1=O)c1csc(N)n1)C(=O)O (stereo in doubt)	No
CC(C)(O/N=C(\C(=O)N[C@@H]1C(=O)N(S(=O)(=O)O)[C@@H]1Cn1cc(C(=O)O)nn1)c1csc(N)n1)C(=O)O (stereo in doubt)	No
Nc1nc(/C(=N/OC2(C(=O)O)CC2)C(=O)N[C@@H]2C(=O)N(S(=O)(=O)O)[C@@H]2Cn2cncn2)cs1 (stereo in doubt)	Yes

Consider the record given below.
In the record for N=C(NC1CCNCC1)c1ccc(OC[C@H](O/N=C(\C(=O)N[C@@H]2C(=O)N(S(=O)(=O)O)[C@@H]2Cn2cncn2)c2csc(N)n2)C(=O)O)cc1 (stereo in doubt) , is MIC less than 4 µg/mL?
Yes

###

experiment: AUC in dog at 10 mg/kg, iv; format: ADME, organism-based, Canis lupus familiaris; conditions: in vivo
Measured metric: AUC (µg·h/mL)
Express the result in µg·h/mL but write the number alone.

Compound	Measured metric	Value units	Recorded value
C[C@H]1[C@H](NC(=O)/C(=N\OC(C)(C)C(=O)O)c2csc(N)n2)C(=O)N1S(=O)(=O)O	AUC	µg·h/mL	13

Shift focus to the following entry.
// fetch AUC given entry Nc1nc(/C(=N/OC2(C(=O)O)CC2)C(=O)N[C@@H]2C(=O)N(S(=O)(=O)O)[C@@H]2CN2CCOC2=O)cs1 (stereo in doubt)
13

###

assay: Drug excretion in dog assessed as unchanged parent drug level at 10 mg/kg, iv; assay type: ADME, organism-based, Canis lupus familiaris; conditions: in vivo, read-out: Drug excretion
Recorded dose excreted, one value per entry.
Express the result in % but write the number alone.

Compound	dose excreted / %
C[C@H]1[C@H](NC(=O)/C(=N\OC(C)(C)C(=O)O)c2csc(N)n2)C(=O)N1S(=O)(=O)O	53

// fetch dose excreted given entry Nc1nc(/C(=N/OC2(C(=O)O)CC2)C(=O)N[C@@H]2C(=O)N(S(=O)(=O)O)[C@@H]2CN2CCOC2=O)cs1 (stereo in doubt)
34

Each recorded value in this set is attributed to ChEMBL document CHEMBL4184210.
